We begin with a simple list: items and their reported inhibition at 110 µM.
# System: C. elegans
# measurement-notes: microbe, parasite or virus in culture
# condition-label: Caenorhabditis elegans, 0 h, read-out: Percentage of motility inhibition 0 h, Table S2, C. elegans SS assay, 110 μM, 0 h, averages of 4 data points

compound: C1CNCCN1
test-system: C. elegans
inhibition at 110 µM (%): 3

compound: Cc1ncc(COP(=O)(O)O)c(C=O)c1O [Pyridoxal phosphate]
test-system: C. elegans
inhibition at 110 µM (%): 11

compound: O=c1cc(-c2ccc(O)cc2)oc2c([C@@H]3O[C@H](CO)[C@@H](O)[C@H](O)[C@H]3O)c(O)cc(O)c12
test-system: C. elegans
inhibition at 110 µM (%): 39

###

# Tested on: C. elegans
# measurement-notes: microbe, parasite or virus in culture
# condition-label: Caenorhabditis elegans, 24 h, read-out: Percentage of motility inhibition 24 h, Table S2, C. elegans SS assay, 110 μM, 24 h, averages of 4 data points
Entries and their inhibition at 110 µM
observation-type: inhibition at 110 µM (%)

molecule: C=C1C(=O)O[C@@H]2O[C@@]3(C)CC[C@H]4[C@H](C)CC[C@@H]1[C@@]24OO3 [Artemisitene]
test-system: C. elegans
observation-type: inhibition at 110 µM
result: 9
--
molecule: CC[C@@H]1[C@H]2CCCCN3[C@H]2[C@@H](C[C@H]3[C@@H]2C[C@H](C)C(=O)O2)[C@H]2[C@@H]1OC(=O)[C@H]2C [Neotuberostemonine]
test-system: C. elegans
observation-type: inhibition at 110 µM
result: 9
--
molecule: O=C1c2cccc(O)c2C(=O)c2c(O)cccc21 [Danthron]
test-system: C. elegans
observation-type: inhibition at 110 µM
result: 9

###

# Tested on: C. elegans
# condition-label: Table S2, C. elegans SS assay, 110 μM, 0 h, averages of 4 data points
observation-type: Percentage of motility inhibition 0 h (%)

compound: CN1CCC=C(C(=O)O)C1 [Arecaidine]
units-symbol: %
result: 16

compound: C=C[C@H]1CN2CC[C@H]1C[C@@H]2[C@@H](O)c1ccnc2ccc(OC)cc12.Cl.O [Quinidine hydrochloride monohydrate]
units-symbol: %
result: 40

compound: C=C1[C@H](O)C[C@H]2[C@@H](/C=C(\C)C(=O)[C@@]3(O)C[C@H](C)[C@H](O)[C@@H]3[C@H]1O)C2(C)C [7beta-Hydroxylathyrol]
units-symbol: %
result: 6

compound: O=C(O[C@H]1[C@H](Oc2c(-c3ccc(O)c(O)c3)oc3cc(O)cc(O)c3c2=O)O[C@H](CO)[C@H](O)[C@@H]1O)c1cc(O)c(O)c(O)c1 [2"‐O‐Galloylhyperin]
units-symbol: %
result: 32

compound: CC[C@]1(O)C[C@H]2CN(CCc3c([nH]c4ccccc34)[C@@](C(=O)OC)(c3cc4c(cc3OC)N(C=O)[C@H]3[C@@](O)(C(=O)OC)[C@H](OC(C)=O)[C@]5(CC)C=CCN6CC[C@]43[C@@H]65)C2)C1.O=S(=O)(O)O [Vincristine (sulfate)]
units-symbol: %
result: 0

compound: O=c1c(O[C@@H]2O[C@H](CO)[C@@H](O)[C@H](O)[C@H]2O[C@@H]2O[C@H](CO)[C@@H](O)[C@H](O)[C@H]2O)c(-c2ccc(O)c(O)c2)oc2cc(O)cc(O)c12 [Baimaside]
units-symbol: %
result: 13

compound: OCc1ccc(O)cn1 [2‐Hydroxymethyl‐5‐hydroxypyridine]
units-symbol: %
result: 0

compound: CN(C)CCn1nnnc1SCC1=C(C(=O)O)N2C(=O)[C@@H](NC(=O)Cc3csc(N)n3)[C@H]2SC1.Cl.Cl [Cefotiam (hydrochloride)]
units-symbol: %
result: 66

compound: C[C@H]1O[C@H](OC2[C@@H](O)[C@@H](O)C(O)[C@H](O)[C@H]2O)[C@@H](N)C[C@@H]1N=C(N)C(=O)O.Cl.O (some centres unmarked) [Kasugamycin (hydrochloride hydrate)]
units-symbol: %
result: 12

compound: C=C1CC[C@H]2O[C@]2(C)CC[C@@H]2[C@@H]1CC2(C)C [Caryophyllene oxide]
units-symbol: %
result: 13

compound: CCOC(=O)c1c(C)n(C)c2ccc(O)cc12 [Mecarbinate]
units-symbol: %
result: 38

compound: C[N+](C)(C)CCOP(=O)([O-])OP(=O)([O-])OC[C@H]1O[C@@H](n2ccc(N)nc2=O)[C@H](O)[C@@H]1O.[Na+] [Citicoline (sodium)]
units-symbol: %
result: 4

compound: COc1cc2c(cc1O)CC[n+]1cc3c4c(ccc3cc1-2)OCO4 [Groenlandicine]
units-symbol: %
result: 0

compound: C=CC/C(=N/OS(=O)(=O)[O-])S[C@@H]1OC(CO)[C@@H](O)C(O)C1O.[K+] (some centres unmarked) [Sinigrin]
units-symbol: %
result: 0

compound: COc1cc(C)c2c(=O)c(-c3ccccc3)coc2c1 [5‐Methyl‐7‐methoxyisoflavone]
units-symbol: %
result: 16

compound: COc1cc(O)cc(O)c1C(=O)/C=C/c1ccccc1 [(E)‐Cardamonin]
units-symbol: %
result: 13

compound: CC1(C)CC[C@@]2(CO)C(=C3C=C[C@@H]4[C@@]5(C)CC[C@H](O)[C@@](C)(CO)[C@@H]5CC[C@@]4(C)[C@]3(C)C[C@H]2O)C1 [Saikogenin D]
units-symbol: %
result: 27

compound: CN1[C@@H]2CC[C@H]1C[C@@H](OC(=O)[C@H](CO)c1ccccc1)C2 [L-Hyoscyamine]
units-symbol: %
result: 55

compound: O=C(O)[C@H]1O[C@@H](Oc2cc(O)c3c(=O)cc(-c4ccccc4)oc3c2)[C@H](O)[C@@H](O)[C@@H]1O [Chrysin‐7‐O‐glucuronide]
units-symbol: %
result: 0

compound: CC(C)=CCN=C(N)N.Cl [Galegine (hydrochloride)]
units-symbol: %
result: 0
